Measured values drawn from the OligoGym collection for this set.

- STUDY TARGET: MAP3K1; also: test concentration or dose not given here
- REPORTED CONDITIONS: ASO
These antisense oligonucleotides have a phosphorothioate backbone; sugars and methylation of C are not fully specified.
Note to self: class = bucket of remaining target (mRNA or protein) (fraction of control), per low (below 0.4), mid (0.4 to below 0.6), high (0.6 or more)

### Prompt Kindly state the category for this sequence: TTTTGCATACTGAGCTTAGG
### Response mid

### Prompt Kindly state the category for this sequence: GCTCCTCCGCCGCCGCCTGC
### Response low

### Prompt Kindly state the category for this sequence: TAGTTGATCTGTATAATTGG
### Response high

### Prompt Kindly state the category for this sequence: TCAGGCAGCTGGTCCAGCTC
### Response mid

### Prompt Kindly state the category for this sequence: GTTTCCAGATAGTTGTTGGG
### Response high

### Prompt Kindly state the category for this sequence: GCAACCCTTTGAGAGTTTCT
### Response low

### Prompt Kindly state the category for this sequence: ATTTCCACCTCATCTGCATA
### Response mid

### Prompt Kindly state the category for this sequence: ACATACTTAGGTAAGGGTTC
### Response mid

### Prompt Kindly state the category for this sequence: TACTGTAGTAACCATTCTTG
### Response high

### Prompt Kindly state the category for this sequence: CAAGGCTGGAAACATTAATT
### Response high

### Prompt Kindly state the category for this sequence: TTGTTTTCAGGACAGTTTCT
### Response high

### Prompt Kindly state the category for this sequence: CCACTGGCCTCGTTCATAGC
### Response low

### Prompt Kindly state the category for this sequence: CTGTTCAGTGGCATCATGGC
### Response mid

### Prompt Kindly state the category for this sequence: CATTCTTGCAGAACTCAAGT
### Response mid
